// data source = PubChem BioAssay AID1211

# study.target: Estrogen receptor (Homo sapiens)
# assay.method.text: ERalpha ligand binders by competition, primary screen, cell-based, Cos7 ERalpha-GFP, flow cytometry (AID 1211);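 note: 0% = DMSO vehicle wells and 100% = no E2-Alexa633 signal left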
# details: fluorescent ligand competition, at 10 µM, stronger effect = higher value
Please provide measured inhibition of ligand binding for the entries that follow.
Give bare numbers, in %.

>  <molecule>
CCCCn1c(NC(=O)CC)c(C#N)c2nc3ccccc3nc21

>  <inhibition of ligand binding, %>
35

$$$$
>  <molecule>
Cc1cc(C(C)CO)cc(C(C)(C)C)c1O (stereo unspecified)

>  <inhibition of ligand binding, %>
21

$$$$

Provide each entry's inhibition of ligand binding from the list below.
1. CC(=O)c1sc2nc(SCC(=O)N3CCCCC3)[nH]c(=O)c2c1C
2. COc1ccc2c(c1)c(=O)oc1cc(OCC(=O)N3CCC(C)CC3)ccc12
3. CCc1nc(N)nc(N)c1-c1ccc(Cl)cc1
4. CCOc1ccc(CC2S/C(=N/c3ccccn3)NC2=O)cc1 (stereo unspecified)

Output line:
1. 33
2. 0
3. 26
4. 8
